# assay.protocol: Binding affinity for endothelin B receptor by measuring its ability to displace [125I]-ET-3 from porcine cerebellar tissue
attribute.measured: IC50 (µM)

{"columns": ["molecule", "attribute.measured", "units.symbol", "measured.number"],
 "data": [
  ["CCCCN(CCCC)C(=O)CN1C[C@H](c2ccc3c(c2)OCO3)[C@@H](C(=O)O)[C@@H]1CC(C)(C)CCC", "IC50", "µM", 62]
]}

(a) C/C=C(\C)CC[C@H]1[C@H](C(=O)O)[C@@H](c2ccc3c(c2)OCO3)CN1CC(=O)N(CCCC)CCCC
(b) CCCCN(CCCC)C(=O)CN1C[C@H](c2ccc3c(c2)OCO3)[C@@H](C(=O)O)[C@@H]1CC(CCC)CCC
(c) CCCCN(CCCC)C(=O)CN1C[C@H](c2ccc3c(c2)OCO3)[C@@H](C(=O)O)[C@@H]1CCC=C1CC1
(d) CCCCN(CCCC)C(=O)CN1C[C@H](c2ccc3c(c2)OCO3)[C@@H](C(=O)O)[C@@H]1CCC1SCCS1
(e) CCCCN(CCCC)C(=O)CN1C[C@H](c2ccc3c(c2)OCO3)[C@@H](C(=O)O)[C@@H]1CC/C=C(/C)CC
## Task Would you mind ranking these molecules by ascending IC50? Rank the items, then write their labels in that order.
## Result e, c, d, a, b

====

As shown below, each of these compounds has a reported IC50 value.
# assay.protocol: Binding affinity for endothelin B receptor by measuring its ability to displace [125I]-ET-3 from porcine cerebellar tissue

Previously resolved entries follow.
{"columns": ["compound", "IC50"],
 "data": [
  ["CCCCN(CCCC)C(=O)CN1C[C@H](c2ccc3c(c2)OCO3)[C@@H](C(=O)O)[C@@H]1CCC1CCCO1 (stereo partly drawn)", "> 100 µM"],
  ["CCCCN(CCCC)C(=O)CN1C[C@H](c2ccc3c(c2)OCO3)[C@@H](C(=O)O)[C@@H]1CCC1CCOCC1", "> 100 µM"]
]}

Next compound, please.
## Task Please indicate IC50 recorded for CCCCN(CCCC)C(=O)CN1C[C@H](c2ccc3c(c2)OCO3)[C@@H](C(=O)O)[C@@H]1CCc1ncco1
## Result > 100 µM

====

# assay.protocol: Binding affinity for endothelin B receptor by measuring its ability to displace [125I]-ET-3 from porcine cerebellar tissue
pIC50: −log10 of the molar value.
attribute.measured: pIC50

Worked cases, answers included:
{"columns": ["molecule", "measured.number"],
 "data": [
  ["CCCCN(CCCC)C(=O)CN1C[C@H](c2ccc3c(c2)OCO3)[C@@H](C(=O)O)[C@@H]1CCc1ccco1", 4.33],
  ["CCCCN(CCCC)C(=O)CN1C[C@H](c2ccc3c(c2)OCO3)[C@@H](C(=O)O)[C@@H]1CCn1ccccc1=O", 4.39],
  ["CCCCN(CCCC)C(=O)CN1C[C@H](c2ccc3c(c2)OCO3)[C@@H](C(=O)O)[C@@H]1CCCCC(F)(F)F", 4.47],
  ["CCCCN(CCCC)C(=O)CN1C[C@H](c2ccc3c(c2)OCO3)[C@@H](C(=O)O)[C@@H]1C(C)(C)CCCC", 4.44],
  ["CCCCN(CCCC)C(=O)CN1C[C@H](c2ccc3c(c2)OCO3)[C@@H](C(=O)O)[C@@H]1CCN1CCCC1=O", 4.18]
]}

(P) CCCCN(CCCC)C(=O)CN1C[C@H](c2ccc3c(c2)OCO3)[C@@H](C(=O)O)[C@@H]1CC(C)(C)C=C(C)C
(Q) C=C(C)CCC[C@H]1[C@H](C(=O)O)[C@@H](c2ccc3c(c2)OCO3)CN1CC(=O)N(CCCC)CCCC
(R) CCCCN(CCCC)C(=O)CN1C[C@H](c2ccc3c(c2)OCO3)[C@@H](C(=O)O)[C@@H]1CCc1ccccn1
## Task Order field: pIC50 | Direction: descending (largest first) Rank the items, then write their labels in that order.
## Result R, Q, P
